Reference source: ChEMBL document CHEMBL1140408

Provide the reported IC50 of each item.
Molecular target: Transient receptor potential cation channel subfamily V member 1 (Rattus norvegicus, UniProt O35433)
Sequence (O35433 whole entry): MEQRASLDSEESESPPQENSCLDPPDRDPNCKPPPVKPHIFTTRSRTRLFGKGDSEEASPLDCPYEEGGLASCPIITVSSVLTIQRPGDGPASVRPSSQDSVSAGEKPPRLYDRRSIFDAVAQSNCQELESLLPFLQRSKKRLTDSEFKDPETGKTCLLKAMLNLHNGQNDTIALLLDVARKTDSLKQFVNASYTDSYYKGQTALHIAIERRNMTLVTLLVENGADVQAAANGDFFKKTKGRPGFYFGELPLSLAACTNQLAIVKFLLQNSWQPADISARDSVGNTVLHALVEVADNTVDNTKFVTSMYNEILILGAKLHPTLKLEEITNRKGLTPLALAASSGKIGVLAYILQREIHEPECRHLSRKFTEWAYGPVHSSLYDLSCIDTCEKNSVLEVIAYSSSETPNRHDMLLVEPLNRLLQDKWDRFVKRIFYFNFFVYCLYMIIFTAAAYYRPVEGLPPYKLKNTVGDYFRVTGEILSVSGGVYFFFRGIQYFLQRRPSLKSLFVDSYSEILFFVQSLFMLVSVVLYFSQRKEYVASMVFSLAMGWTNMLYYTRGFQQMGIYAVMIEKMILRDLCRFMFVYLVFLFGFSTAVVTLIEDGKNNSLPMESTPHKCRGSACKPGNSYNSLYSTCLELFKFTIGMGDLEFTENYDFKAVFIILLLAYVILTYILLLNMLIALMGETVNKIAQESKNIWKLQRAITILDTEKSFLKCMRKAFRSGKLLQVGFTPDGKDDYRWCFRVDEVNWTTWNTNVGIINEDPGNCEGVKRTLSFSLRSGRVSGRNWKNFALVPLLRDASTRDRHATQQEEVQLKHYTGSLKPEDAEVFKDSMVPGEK
Test: Inhibitory effect on capsaicin (0.5 uM)-induced calcium uptake in rat DRG neurons upon incubation at RT for 10 minutes

// query Let me know recorded IC50 for CC(C)(C)NC(=S)NCc1ccc(NS(C)(=O)=O)c(F)c1 , thanks.
// result > 30 µM

// query Let me know recorded IC50 for CS(=O)(=O)Nc1ccc(C/N=C(\S)NC(c2ccccc2)c2ccccc2)cc1F , thanks.
// result 2.5 µM

// query Let me know recorded IC50 for CCCCc1ccc(CNC(=S)NCc2ccc(NS(C)(=O)=O)c(F)c2)cc1 , thanks.
// result 0.47 µM

// query Let me know recorded IC50 for CC(C)(C)c1ccc(CNC(=S)NCc2ccc3[nH]ccc3c2)cc1 , thanks.
// result 1.8 µM

// query Let me know recorded IC50 for CS(=O)(=O)Nc1ccc(CN=C(S)NCc2cccc3ccccc23)cc1F , thanks.
// result 2.6 µM

// query Let me know recorded IC50 for Cc1ccc(C/N=C(\S)NCc2ccc(NS(C)(=O)=O)c(F)c2)cc1 , thanks.
// result 1.5 µM

// query Let me know recorded IC50 for CCCc1ccc(CNC(=S)NCc2ccc(NS(C)(=O)=O)c(F)c2)cc1 , thanks.
// result 0.46 µM

// query Let me know recorded IC50 for CS(=O)(=O)Nc1ccc(CNC(=S)NCc2ccc(-c3ccccc3)cc2)cc1F , thanks.
// result > 30 µM

// query Let me know recorded IC50 for CC(C)(C)c1ccc(C/N=C(\NC#N)NCc2ccc(NS(C)(=O)=O)c(F)c2)cc1 , thanks.
// result 0.73 µM

// query Let me know recorded IC50 for CC(C)(C)c1ccc(CNC(=S)NCc2ccc3nc[nH]c3c2)cc1 , thanks.
// result 0.79 µM

// query Let me know recorded IC50 for CC(C)(C)c1ccc(C/N=C(\S)NCc2ccc(NS(C)(=O)=O)c(C#N)c2)cc1 , thanks.
// result 5.9 µM

// query Let me know recorded IC50 for COC(=O)CNc1ccc(CNC(=S)NCc2ccc(C(C)(C)C)cc2)cc1F , thanks.
// result 3.6 µM

// query Let me know recorded IC50 for CS(=O)(=O)Nc1ccc(C/N=C(\S)NCc2ccc(I)cc2)cc1F , thanks.
// result 0.63 µM

// query Let me know recorded IC50 for CS(=O)(=O)Nc1ccc(C/N=C(\S)Nc2c3ccccc3cc3ccccc23)cc1F , thanks.
// result 1.1 µM

// query Let me know recorded IC50 for CC(C)(C)c1ccc(CCNC(=S)NCc2ccc(NS(C)(=O)=O)c(F)c2)cc1 , thanks.
// result 0.37 µM

// query Let me know recorded IC50 for CCc1ccc(C/N=C(\S)NCc2ccc(NS(C)(=O)=O)c(F)c2)cc1 , thanks.
// result 1.1 µM

// query Let me know recorded IC50 for CC(C)(C)c1ccc(C(C)(C)/N=C(\S)NCc2ccc(NS(C)(=O)=O)c(F)c2)cc1 , thanks.
// result > 30 µM

// query Let me know recorded IC50 for CC(C)c1ccc(C/N=C(\S)NCc2ccc(NS(C)(=O)=O)c(F)c2)cc1 , thanks.
// result 0.52 µM

// query Let me know recorded IC50 for CC(C)(C)c1ccc(CNC(=S)NCc2ccc(NC(=O)C(F)(F)F)c(F)c2)cc1 , thanks.
// result > 30 µM

// query Let me know recorded IC50 for CC(C)(C)c1ccc(C/N=C(\S)NCc2ccc(NS(C)(=O)=O)c(Br)c2)cc1 , thanks.
// result 0.08 µM

// query Let me know recorded IC50 for CS(=O)(=O)Nc1ccc(C/N=C(\S)NCc2ccc(Br)cc2)cc1F , thanks.
// result 0.57 µM
